Target: T1, MPDZ_7, O75970
T1 sequence (O75970 1146-1253, limits assumed, looked up): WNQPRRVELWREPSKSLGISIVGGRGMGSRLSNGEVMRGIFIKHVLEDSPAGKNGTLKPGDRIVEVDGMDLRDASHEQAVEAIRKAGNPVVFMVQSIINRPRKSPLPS
Experiment: holdup assay
Parameters: key: below the threshold = too weak to quantify, mostly under pKd 3.1 to 4
Conditions: plain residues with an end cap or a label only (N-terminal biotin on a linker: ttds)
Measurement Label: pKd

[[record]]
binder = "SSLQSLETSV [ATP2B4, P23634]"
test_value = "below the threshold"

[[record]]
binder = "RHTTSTETAV [HPV30-E6, P36809]"
test_value = "below the threshold"

[[record]]
binder = "QRQARSETLV [HPV59-E6, Q81964]"
test_value = 4.28

[[record]]
binder = "RLQRRRETQV [HPV18-E6, P06463]"
test_value = "below the threshold"

